B1: glmS ribozyme (parent)
chain: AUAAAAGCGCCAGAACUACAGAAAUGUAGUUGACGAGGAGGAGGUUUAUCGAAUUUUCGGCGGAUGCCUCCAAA

# Variants of: B1
# PROTOCOL: self-cleavage kobs at 640 uM GlcN6P; higher = faster cleavage; RNA array
# APPLIED CONDITIONS: with glucosamine-6-phosphate
This sample holds only a part of the variants without activity.
READOUT NAME: self-cleavage kobs at 640 uM GlcN6P (s⁻¹)
Numbers only, in s⁻¹.

INSERT INTO assay_data (seq_string, readout_name, unit_descriptor, quantitative_result) VALUES
  ('AUAAAAGCGCCAGAACUACAGAAAUGUAGCUGACGAGGAGGAGGUUUAUGGAAUUUUCGGGGGAUGCCUCCAAA [U30C C50G C61G]', 'self-cleavage kobs at 640 uM GlcN6P', 's⁻¹', 0.000327);

Hello, I would appreciate it if you could give self-cleavage kobs at 640 uM GlcN6P for each entry below.
1. AUAAAAGCGCCAGAACUACAGAAAUGUAGUUGACGAGGAGGAGGUUUGUCGAAUUUUCGGCGGAUGCCUUCAAA [A48G C70U]
2. AUAAAAGCGCCAGUACUACAGAAAUGUAGUUGACGAGGAGGAGGUUUAUCGAAUUUUCGGCGGAUGCCCCCAAA [A14U U69C]

5.39e-05
0.000362
